Tested on: OCI-AML2
Assay: cell viability relative to vehicle control; higher = less cytotoxic;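 further: after 48 h exposure read by CellTiter-Glo luminescence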
Conditions: 10 µM; SRSF2 genotype: wt/wt
Counter-ions that a name gives are not always drawn.
Flag rule - cell viability less than 90% flags true (1); the remaining entries get false (0).

Record excerpt, results attached:
Compound | Assigned class
C=C[C@@](C)(/C=C/c1ccc(O)cc1)CCC=C(C)C | true (1)
CCc1ccc(CCOc2ccc(CC3SC(=O)NC3=O)cc2)nc1 (configuration not stated) | false (0)
CC(=O)OCC1=C[C@@H]2OC(=O)C3=CO[C@@H](O[C@@H]4O[C@H](CO)[C@@H](O)[C@H](O)[C@H]4O)[C@H]1[C@@H]32 | false (0)
Nc1c2c(nc3ccccc13)CCCC2 [tacrine hydrochlorid] | false (0)

Is cell viability of C[C@H](CCC(=O)O)[C@H]1CC[C@H]2[C@@H]3[C@@H](O)C[C@@H]4C[C@H](O)CC[C@]4(C)[C@H]3CC[C@]12C strictly below 90%?
false (0)

is_below(cell viability, 90%) for Oc1ccc2ccccc2c1N=Nc1ccc(N=Nc2ccccc2)cc1 ?
true (1)

Given C=C(CCC=C(C)C)[C@H]1CC[C@]2(C)[C@@H]1[C@H](O)C[C@@H]1[C@@]3(C)CC[C@H](O[C@@H]4O[C@H](CO)[C@@H](O)[C@H](O)[C@H]4O[C@@H]4O[C@H](CO)[C@@H](O)[C@H](O)[C@H]4O)C(C)(C)[C@@H]3CC[C@]12C [Ginsenoside Rk1] , is recorded cell viability strictly lower than 90%?
false (0)

----------
Test system: MARIMO
Experiment: cell viability relative to vehicle control; higher = less cytotoxic
Conditions: 10 µM; SRSF2 genotype: SRSF2 wt/wt
Rule: cell viability below 60% gives Criterion met, anything at or above gives Criterion not met.

Compound | Assigned class
O=C(O)C1=CO[C@@H](O[C@@H]2O[C@H](CO)[C@@H](O)[C@H](O)[C@H]2O)[C@@H]2C(CO)=CC[C@H]12 | Criterion not met
CC(C)[C@H](C(=O)Nc1ccc(C(=O)NO)cc1)c1ccccc1 | Criterion met

Item O=C(NCCCn1ccnc1)c1cc(-c2ccco2)on1 : cell viability beneath 60%, strictly?
Criterion not met

Here's an entry: OCc1ccc(O[C@@H]2O[C@H](CO)[C@@H](O)[C@H](O)[C@H]2O)cc1 . Is its cell viability below 60%?
Criterion not met

State whether 60% exceeds cell viability recorded for CCCCOc1ccc(C(=O)Nc2ccc(F)cc2F)cc1 .
Criterion not met

Does the reported cell viability of the following compound sit strictly below 60%? N#Cc1ccc2[nH]c(O)c(-c3ccc(CN4CCOCC4)cn3)c2c1
Criterion not met

Consider NC(=O)N1CCC(CC(=O)N2CCC([C@H]3c4ncc(Br)cc4CCc4cc(Cl)cc(Br)c43)CC2)CC1 . Does its cell viability lie strictly below 60%?
Criterion met

Check if cell viability falls below 60% for c1cc(-c2cnn3cc(-c4ccc(N5CCNCC5)cc4)cnc23)c2cccnc2c1 .
Criterion met

Could you please tell me whether cell viability recorded for CC(C)(Oc1ccc(C2CC2(Cl)Cl)cc1)C(=O)O (stereo not drawn) [Ciprofibrate] is less than 60%?
Criterion not met

Dear colleague, could you confirm whether cell viability of OC(c1ccccc1)(c1ccccc1)C12CC[N+](CCOCc3ccccc3)(CC1)CC2 [Umeclidinium bromide] falls below 60%? Thanks.
Criterion not met

Quick check: does CN(CCNc1ccnc2cc(Cl)ccc12)CCNc1ccnc2cc(Cl)ccc12 have cell viability under 60%?
Criterion met

Is cell viability strictly under 60% for the entry CC(C)c1cc2c(N3CCN(C4=NCC(C)(C)S4)CC3)ncnc2s1 ?
Criterion met

State whether 60% exceeds cell viability recorded for C[C@@H](Nc1cc(F)cc(F)c1)c1cc(C(=O)N(C)C)cc2c(=O)cc(N3CCOCC3)oc12 .
Criterion met

----------
System: MARIMO
Test: cell viability relative to vehicle control; higher = less cytotoxic
Conditions: 10 µM; SRSF2 genotype: SRSF2 wt/wt
Value kind: cell viability (%)
Reply with just the number (in %).

Molecule | Measured result
COc1cc(Nc2ncc(F)c(Nc3ccc4c(n3)N(COP(=O)(O)O)C(=O)C(C)(C)O4)n2)cc(OC)c1OC | 114
Cc1cc(=O)oc2cc(O)ccc12 | 96.7
CC1(C)O[C@@H]2C[C@H]3[C@@H]4CCC5=CC(=O)C=C[C@]5(C)[C@H]4[C@@H](O)C[C@]3(C)[C@]2(C(=O)CO)O1 [Desonide] | 110

Let us move to another entry and its cell viability.
I'd like to know its cell viability. The molecule in question is CC(N)C12CC3CC(CC(C3)C1)C2 (stereo not drawn)
104

----------
Tested on: MARIMO
Experiment: cell viability relative to vehicle control; higher = less cytotoxic
Settings: 10 µM; SRSF2 genotype: SRSF2 P95H/wt
In this section we review reported cell viability values for a set of compounds.
Note: unit % is implicit; provide only the numeric part.

Sample answers from the record:
Compound | System tested | Measured result
C[C@@H]1C[C@H]2[C@@H]3CCC4=CC(=O)C=C[C@]4(C)[C@@]3(F)[C@@H](O)C[C@]2(C)[C@@]1(O)C(=O)CO [Dexamethasone] | MARIMO | 106
COc1ccc(C[C@@H]2c3cc(OC)c(OC)cc3CC[N@+]2(C)CCC(=O)OCCCCCOC(=O)CC[N@@+]2(C)CCc3cc(OC)c(OC)cc3[C@H]2Cc2ccc(OC)c(OC)c2)cc1OC [Cisatracurium besylate (Nimbex)] | MARIMO | 79
N#Cc1ccc2ncnc(NCCc3ccccc3)c2c1 [Senexin A] | MARIMO | 91.8

Give the reported cell viability for O=c1cc(-c2ccc(O)c(O)c2)oc2cc(O)c([C@@H]3O[C@H](CO)[C@@H](O)[C@H](O)[C@H]3O)c(O)c12 [Homoorientin] (system: MARIMO).
83.8

Write down the reported cell viability of CCCCCCCCCCCCCCCCCC[N+](C)(C)C [Trimethyloctadecylammonium bromide] , test system: MARIMO.
12.1

Hello, I am looking for reported cell viability with MARIMO for O=C(O)Cc1ccc2c(c1)C(=O)c1ccccc1CO2 [Isoxepac] . Could you help?
106

Lookup: cell viability / MARIMO / Oc1cc(O)c(Cl)cn1 [Gimeracil]
101

Lab request: please report cell viability under test system MARIMO for NC(=O)c1[nH]cnc1N [4-Amino-5-imidazolecarboxamide]
101

Requested read-out cell viability, target or system MARIMO, entry CC(C)(O)CNc1ncc(-c2ccnc(Nc3ccnc(Cl)c3)n2)c(CC2CC2)n1
39.5

----------
System: MARIMO
Assay: cell viability relative to vehicle control; higher = less cytotoxic
Conditions: 10 µM; SRSF2 genotype: SRSF2 wt/wt
Value kind: cell viability (%)
Please reply with the bare figure in % and do not write the unit itself.

Compound | Unit text | Measured result
COc1cc2nccc(Oc3ccc(NC(=O)NC4CC4)c(Cl)c3)c2cc1C(N)=O | % | 89.3
O=C(/C=C/C=C/c1ccc2c(c1)OCO2)N1CCCCC1 | % | 100
Cc1noc(NS(=O)(=O)c2ccc(N)cc2)c1C | % | 104

Could you share which cell viability value was measured for COc1cccc(OC)c1C(=O)OCc1cc(O)ccc1O[C@@H]1O[C@H](CO)[C@@H](O)[C@H](O)[C@H]1O [Curculigoside] ?
104

----------
Test system: MARIMO
Assay: cell viability relative to vehicle control; higher = less cytotoxic
Conditions: 10 µM; SRSF2 genotype: SRSF2 wt/wt
Value kind: cell viability (%)
All answers are understood in %, so give the number only.

The examples below pair each entry with its known result.
Compound | Measured result
COc1cc(O)cc(O)c1C(=O)C=Cc1ccccc1 [Cardamonin] | 70.9
N#CC(=Cc1cn(-c2ccccc2)c2ccccc12)C(=O)O | 94.5
CCCC(C)NC(=O)c1ccc(Cl)c(Cl)c1 (configuration not stated) | 96.2
O=c1c(-c2ccc(O)cc2)coc2cc(O)cc(O)c12 [Genistein] | 87.8
C[C@@H]1O[C@@H](OC[C@H]2O[C@@H](Oc3cc(O)c4c(c3)O[C@H](c3ccc(O)cc3)CC4=O)[C@H](O)[C@@H](O)[C@@H]2O)[C@H](O)[C@H](O)[C@H]1O [Narirutin] | 97.5

Requested read-out: cell viability. Entry: CC(C)(O)[C@H]1CC[C@@](C)(C2[C@@H](O)C[C@@]3(C)[C@@H]4C[C@H](O)C5C(C)(C)[C@@H](O)CCC56CC46CC[C@]23C)O1 (some centres not stated) [Cycloastragenol]
118

Fill in: cell viability of O=C(/C=C/c1cccc(S(=O)(=O)Nc2ccccc2)c1)NO [Belinostat (PXD101)] is ___
13.7

----------
Listed molecules paired with reported cell viability
System: K562
Assay: cell viability relative to vehicle control; higher = less cytotoxic
Conditions: 10 µM; SRSF2 genotype: SRSF2 P95H/wt
State the answer as a number, implicitly in %.

These recorded examples may help you get a feel for the data.
Molecule | Unit text | Measured result
C#CC1(O)CC[C@H]2[C@@H]3CCC4=CC(=O)CC[C@@H]4[C@H]3CC[C@@]21CC (some centres undefined) | % | 100
CC1=C(/C=C/C(C)=C/C=C/C(C)=C/C=C/C=C(C)/C=C/C=C(C)/C=C/C2=C(C)C(=O)[C@@H](O)CC2(C)C)C(C)(C)C[C@H](O)C1=O | % | 104
Cc1noc(C)c1-c1ccc(-c2cc(C(N)=O)c(NC(N)=O)s2)c(O[C@H]2CCNC2)c1 | % | 101
C[C@H](Cn1cnc2c(N)ncnc21)OCP(=O)(O)O | % | 101
COC(=O)C1(C)CCC2(C(=O)O)CCC3(C)C(=CCC4C5(C)CC(O)C(O)C(C)(CO)C5CCC43C)C2C1 (centres undefined) | % | 108
Cc1cc(S(=O)(=O)O)c2c(C)ccc(C(C)C)cc1-2 [Sodium gualenate] | % | 103

Can you look up cell viability on K562 for CCCC(=O)Nc1cccc(NC(=O)c2ccccc2Br)c1 ?
92.9
